- TEST SYSTEM: human adenosine A3 receptors (Homo sapiens)
- Construct: expressed in transfected cells; host or cells: Chinese hamster ovary (CHO) cells with CRE/SPAP/HYG reporter
- Sequence (P0DMS8 whole entry): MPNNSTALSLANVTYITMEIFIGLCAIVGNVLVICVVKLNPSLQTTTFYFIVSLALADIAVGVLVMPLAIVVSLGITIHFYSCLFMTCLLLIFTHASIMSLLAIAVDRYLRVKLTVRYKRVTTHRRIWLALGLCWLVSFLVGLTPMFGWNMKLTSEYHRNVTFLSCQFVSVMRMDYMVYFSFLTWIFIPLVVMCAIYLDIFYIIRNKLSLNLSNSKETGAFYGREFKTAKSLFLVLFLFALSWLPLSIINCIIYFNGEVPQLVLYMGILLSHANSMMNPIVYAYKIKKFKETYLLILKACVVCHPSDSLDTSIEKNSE
- ASSAY TEXT: Reporter gene experiments in CHO cells (CRE/SPAP, inhibition of forskolin-stimulated SPAP production)
- Assay type: cell-based
- PARTICULARS: ECR = equipotent concentration ratio relative to NECA = 1; agonist potency, CHO CRE/SPAP reporter gene assay
READOUT TYPE: Adenosine A3 receptor ECR*

> print(dat)
                                    compound                               test.system                readout.type  recorded.result
 1  C#C[C@H]1O[C@@H](n2cnc3c(N[C@@H]4CCC[C@]4(OC)c4ccccc4)ncnc32)[C@H](O)[C@@H]1O (relative stereo)  human adenosine A3 receptors (Homo sapiens)  Adenosine A3 receptor ECR*             >165
 2  C#C[C@H]1O[C@@H](n2cnc3c(Nc4ccc(F)cc4Cl)ncnc32)[C@H](O)[C@@H]1O  human adenosine A3 receptors (Homo sapiens)  Adenosine A3 receptor ECR*             >974
 3  C#C[C@H]1O[C@@H](n2cnc3c(NC4CCN(C(=O)OCC)CC4)ncnc32)[C@H](O)[C@@H]1O  human adenosine A3 receptors (Homo sapiens)  Adenosine A3 receptor ECR*            >3580
 4  C#C[C@H]1O[C@@H](n2cnc3c(Nc4ccc(Cl)cc4F)ncnc32)[C@H](O)[C@@H]1O  human adenosine A3 receptors (Homo sapiens)  Adenosine A3 receptor ECR*             >215
 5  C#C[C@H]1O[C@@H](n2cnc3c(NC4CC4(C)C)ncnc32)[C@H](O)[C@@H]1O (stereo partly shown)  human adenosine A3 receptors (Homo sapiens)  Adenosine A3 receptor ECR*            >3208
 6  C#C[C@H]1O[C@@H](n2cnc3c(N[C@@H]4CCO[C@@H]4C)ncnc32)[C@H](O)[C@@H]1O  human adenosine A3 receptors (Homo sapiens)  Adenosine A3 receptor ECR*             >386
 7  C#C[C@H]1O[C@@H](n2cnc3c(Nc4ccc(F)c(F)c4)ncnc32)[C@H](O)[C@@H]1O  human adenosine A3 receptors (Homo sapiens)  Adenosine A3 receptor ECR*             >188
 8  C#C[C@H]1O[C@@H](n2cnc3c(NC4CC4)ncnc32)[C@H](O)[C@@H]1O  human adenosine A3 receptors (Homo sapiens)  Adenosine A3 receptor ECR*            >1066
 9  C#C[C@H]1O[C@@H](n2cnc3c(NC4CCCCC4)ncnc32)[C@H](O)[C@@H]1O  human adenosine A3 receptors (Homo sapiens)  Adenosine A3 receptor ECR*             >178
10  C#C[C@H]1O[C@@H](n2cnc3c(NC4CCCC4)ncnc32)[C@H](O)[C@@H]1O  human adenosine A3 receptors (Homo sapiens)  Adenosine A3 receptor ECR*            >80.2

Sourced from patent US20040162422A1
